Test system: Human mesenchymal stem cells (MSCs)
Assay: Adipogenesis of human mesenchymal stem cells (PPARγ dependent)
Conditions: read-out: IC50, inhibition of adipogenesis; human MSCs under adipogenic conditions; data not shown
reported.property: pIC50
FYI, pIC50 means -log10 of a concentration in mol per litre.

The compound O=C(Nc1ccccc1)c1cc([N+](=O)[O-])ccc1Cl [GW9662, reference compound] on Human mesenchymal stem cells (MSCs): pIC50 was 5.27

====

Target: PR (Homo sapiens, UniProt P06401)
Sequence (P06401 1-933): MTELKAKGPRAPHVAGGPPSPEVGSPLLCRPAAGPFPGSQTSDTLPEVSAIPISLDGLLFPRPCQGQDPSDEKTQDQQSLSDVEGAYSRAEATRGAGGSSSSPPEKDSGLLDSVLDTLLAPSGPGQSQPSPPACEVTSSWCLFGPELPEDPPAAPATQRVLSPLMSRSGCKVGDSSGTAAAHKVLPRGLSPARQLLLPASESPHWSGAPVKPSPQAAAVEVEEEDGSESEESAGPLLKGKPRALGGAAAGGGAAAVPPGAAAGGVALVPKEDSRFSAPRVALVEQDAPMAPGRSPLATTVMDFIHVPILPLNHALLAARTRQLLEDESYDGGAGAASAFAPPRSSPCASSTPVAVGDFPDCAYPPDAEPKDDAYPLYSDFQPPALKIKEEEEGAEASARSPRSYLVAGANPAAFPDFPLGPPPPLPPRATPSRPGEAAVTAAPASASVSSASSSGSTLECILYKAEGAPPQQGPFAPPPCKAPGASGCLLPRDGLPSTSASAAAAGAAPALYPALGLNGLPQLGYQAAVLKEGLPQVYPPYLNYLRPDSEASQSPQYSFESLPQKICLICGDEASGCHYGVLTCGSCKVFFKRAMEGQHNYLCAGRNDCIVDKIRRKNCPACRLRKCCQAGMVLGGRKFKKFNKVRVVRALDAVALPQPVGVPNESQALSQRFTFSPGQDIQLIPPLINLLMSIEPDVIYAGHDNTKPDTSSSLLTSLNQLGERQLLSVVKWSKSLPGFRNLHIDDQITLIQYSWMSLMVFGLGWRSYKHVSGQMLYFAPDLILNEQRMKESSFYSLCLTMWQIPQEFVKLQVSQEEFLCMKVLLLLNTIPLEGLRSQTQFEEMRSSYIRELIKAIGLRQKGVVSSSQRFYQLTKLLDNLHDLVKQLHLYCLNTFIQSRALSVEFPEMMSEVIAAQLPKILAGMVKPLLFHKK
Experiment: Receptor reporter assay selectivity panel: PR
reported.property: IC50

The molecule O=C(O)c1ccc(-c2nn(C(=O)c3c(Cl)cccc3C(F)(F)F)c3cccc(F)c23)c(F)c1 [MRL-299] on PR (Homo sapiens, UniProt P06401): IC50 was > 30 µM
